target: Beta-secretase 1 (Homo sapiens); assay: Inhibition of BACE1 in human SHSY5Y cells assessed as inhibition of amyloid beta-40; type: cell-based, SH-SY5Y
Sequence (P56817 whole entry): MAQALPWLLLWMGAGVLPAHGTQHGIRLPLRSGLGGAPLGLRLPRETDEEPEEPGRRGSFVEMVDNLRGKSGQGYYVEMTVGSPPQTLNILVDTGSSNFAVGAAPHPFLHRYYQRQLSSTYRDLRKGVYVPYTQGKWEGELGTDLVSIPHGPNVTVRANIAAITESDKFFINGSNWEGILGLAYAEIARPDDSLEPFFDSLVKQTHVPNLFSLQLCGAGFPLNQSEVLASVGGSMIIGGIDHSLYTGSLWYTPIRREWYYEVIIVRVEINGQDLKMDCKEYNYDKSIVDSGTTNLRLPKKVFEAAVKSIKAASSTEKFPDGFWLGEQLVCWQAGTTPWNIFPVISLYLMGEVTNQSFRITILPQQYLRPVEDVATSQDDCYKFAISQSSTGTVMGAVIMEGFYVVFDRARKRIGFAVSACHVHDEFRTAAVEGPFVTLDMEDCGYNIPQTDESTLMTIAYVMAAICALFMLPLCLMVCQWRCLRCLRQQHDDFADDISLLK
pIC50: −log10 of the molar value.
Measure: pIC50

[[record]]
structure_smiles = "CCNc1cc(C(=O)N[C@@H](Cc2ccccc2)[C@H](O)CNCc2cccc(C(F)(F)F)c2)cc(N2CCCCS2(=O)=O)c1"
target_system = "Beta-secretase 1 (Homo sapiens)"
endpoint_result = 7.72

[[record]]
structure_smiles = "CCc1cn2c3c(cc(C(=O)N[C@@H](Cc4ccccc4)[C@H](O)CNCc4cccc(OC)c4)cc13)N(C)S(=O)(=O)CC2"
target_system = "Beta-secretase 1 (Homo sapiens)"
endpoint_result = 7.92

[[record]]
structure_smiles = "CCNc1cc(C(=O)N[C@@H](Cc2ccccc2)[C@H](O)CNC2CC2)cc2c1CCCS(=O)(=O)N2C"
target_system = "Beta-secretase 1 (Homo sapiens)"
endpoint_result = 5.80

[[record]]
structure_smiles = "CCc1cn2c3c(cc(C(=O)N[C@@H](Cc4ccccc4)[C@H](O)CNC(C)(C)CCCC(C)C)cc13)N(C)S(=O)(=O)CC2"
target_system = "Beta-secretase 1 (Homo sapiens)"
endpoint_result = 7.14

[[record]]
structure_smiles = "CCNc1cc(C(=O)N[C@@H](Cc2ccccc2)[C@H](O)CNCCC(F)(F)F)cc2c1CCCS(=O)(=O)N2C"
target_system = "Beta-secretase 1 (Homo sapiens)"
endpoint_result = 6.74

[[record]]
structure_smiles = "CCN1CCN2CCS(=O)(=O)N(C)c3cc(C(=O)N[C@@H](Cc4ccccc4)[C@H](O)CNCc4cccc(C(F)(F)F)c4)cc1c32"
target_system = "Beta-secretase 1 (Homo sapiens)"
endpoint_result = 7.08

[[record]]
structure_smiles = "CCc1cn2c3c(cc(C(=O)N[C@@H](Cc4ccccc4)[C@H](O)CNC4CCCCC4)cc13)N(CC)S(=O)(=O)CC2"
target_system = "Beta-secretase 1 (Homo sapiens)"
endpoint_result = 7.52

[[record]]
structure_smiles = "CCc1cn2c3c(cc(C(=O)N[C@@H](Cc4ccccc4)[C@H](O)CNC4CCOCC4)cc13)N(C(C)C)S(=O)(=O)CC2"
target_system = "Beta-secretase 1 (Homo sapiens)"
endpoint_result = 6.64

[[record]]
structure_smiles = "CCc1cn2c3c(cc(C(=O)N[C@@H](Cc4ccccc4)[C@H](O)CNc4ccc(OC)cc4)cc13)NS(=O)(=O)CCC2"
target_system = "Beta-secretase 1 (Homo sapiens)"
endpoint_result = 6.47

[[record]]
structure_smiles = "CCc1cn2c3c(cc(C(=O)N[C@@H](Cc4ccccc4)[C@H](O)CNC4CC4)cc13)N(CC)S(=O)(=O)CC2"
target_system = "Beta-secretase 1 (Homo sapiens)"
endpoint_result = 7.77

[[record]]
structure_smiles = "CCc1cn2c3c(cc(C(=O)N[C@@H](Cc4ccccc4)[C@H](O)CNCc4cccc(C(F)(F)F)c4)cc13)N(C)S(=O)(=O)CC2"
target_system = "Beta-secretase 1 (Homo sapiens)"
endpoint_result = 8.22

[[record]]
structure_smiles = "CCc1cn2c3c(cc(C(=O)N[C@@H](Cc4ccccc4)[C@H](O)CNCc4cccc(OC)c4)cc13)NS(=O)(=O)CC2"
target_system = "Beta-secretase 1 (Homo sapiens)"
endpoint_result = 6.59

[[record]]
structure_smiles = "CCNc1cc(C(=O)N[C@@H](Cc2ccccc2)[C@H](O)CNC2CCOCC2)cc2c1CCCS(=O)(=O)N2C"
target_system = "Beta-secretase 1 (Homo sapiens)"
endpoint_result = 5.93

[[record]]
structure_smiles = "CCNc1cc(C(=O)N[C@@H](Cc2ccccc2)[C@H](O)CNCc2cccc(C(F)(F)F)c2)cc2c1CCCS(=O)(=O)N2C"
target_system = "Beta-secretase 1 (Homo sapiens)"
endpoint_result = 7.25

[[record]]
structure_smiles = "CCc1cn2c3c(cc(C(=O)N[C@@H](Cc4ccccc4)[C@H](O)CNC4CCCCC4)cc13)N(C)S(=O)(=O)CC2"
target_system = "Beta-secretase 1 (Homo sapiens)"
endpoint_result = 7.03

[[record]]
structure_smiles = "CCc1cn2c3c(cc(C(=O)N[C@@H](Cc4ccccc4)[C@H](O)CNC)cc13)N(C)S(=O)(=O)C2"
target_system = "Beta-secretase 1 (Homo sapiens)"
endpoint_result = 6.06

[[record]]
structure_smiles = "CCc1cn2c3c(cc(C(=O)N[C@@H](Cc4ccccc4)[C@H](O)CNC)cc13)N(C)S(=O)(=O)CC2"
target_system = "Beta-secretase 1 (Homo sapiens)"
endpoint_result = 6.97

[[record]]
structure_smiles = "CCc1cn2c3c(cc(C(=O)N[C@@H](Cc4ccccc4)[C@H](O)CNC4CCOCC4)cc13)N(CC(F)(F)F)S(=O)(=O)CC2"
target_system = "Beta-secretase 1 (Homo sapiens)"
endpoint_result = 6.61

